Where these numbers come from: patent US20240010721A1

Target: T1, human ROR1 (hROR1) on cells (human, UniProt Q01973 30-937)
T1 construct: whole, on cells; the cell line is named under assay; also called HEK293T-hROR1; 293T-hROR1
T1 sequence (Q01973 30-937): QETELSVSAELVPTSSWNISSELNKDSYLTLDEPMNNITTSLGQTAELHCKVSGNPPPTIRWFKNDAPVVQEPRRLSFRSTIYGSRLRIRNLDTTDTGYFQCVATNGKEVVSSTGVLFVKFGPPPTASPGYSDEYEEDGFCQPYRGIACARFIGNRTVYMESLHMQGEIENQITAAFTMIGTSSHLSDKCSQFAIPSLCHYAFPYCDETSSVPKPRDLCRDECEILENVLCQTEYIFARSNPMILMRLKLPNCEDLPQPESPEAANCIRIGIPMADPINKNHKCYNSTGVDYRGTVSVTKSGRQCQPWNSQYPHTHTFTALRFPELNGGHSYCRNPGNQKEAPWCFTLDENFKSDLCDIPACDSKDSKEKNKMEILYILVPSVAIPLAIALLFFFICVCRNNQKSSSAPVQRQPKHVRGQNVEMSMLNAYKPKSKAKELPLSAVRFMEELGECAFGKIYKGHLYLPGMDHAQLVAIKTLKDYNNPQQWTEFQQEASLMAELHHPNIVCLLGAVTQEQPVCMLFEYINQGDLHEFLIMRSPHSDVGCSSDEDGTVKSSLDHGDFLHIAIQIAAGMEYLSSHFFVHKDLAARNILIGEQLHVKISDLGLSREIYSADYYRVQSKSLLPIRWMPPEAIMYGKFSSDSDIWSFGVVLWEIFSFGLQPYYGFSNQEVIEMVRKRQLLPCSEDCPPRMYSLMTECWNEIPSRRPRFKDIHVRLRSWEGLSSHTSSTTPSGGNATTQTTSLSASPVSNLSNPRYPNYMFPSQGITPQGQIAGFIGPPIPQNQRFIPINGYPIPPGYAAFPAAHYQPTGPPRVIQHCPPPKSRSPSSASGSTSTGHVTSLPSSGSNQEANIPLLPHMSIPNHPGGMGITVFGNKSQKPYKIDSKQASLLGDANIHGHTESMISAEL
Assay: FACS, HEK293T-hROR1 cells; cytometer saturated
Overview of recorded MAX(MFI) for various binders
Form entry: value (MFI) — number only.

Solved cases below.
PR001366 (antibody, V domains shown, fully human IgG1, kappa) VH: QVQLVESGGGVVQPGRSLRLSCTASGFTFSSYGMHWVRQAPGKGLEWVAVKWYDGISQNFADSVKGRFTISRDNSKNTLYLQMNSLRAEDTAVYYCARDLARSFDIWGRGTLVTVSS VL: DIQLTQSPSTLSASVGDRVTITCRASQSINSWLAWYQQKPGKAPKLLIYKASSLESGVPSRFSGSGSGTEFTLTISSLQPDDFATYYCQQYKSYSPMYTFGQGTKVDIKR :: 262000
PR001367 (antibody, human IgG1, kappa, V domains shown, fully human IgG1, kappa) VH: QVQLVESGGGVVQPGRSLRLSCAASGFSFSSYAMHWVRQAPGRGLEWVAVIWYDGGDEDYIDSVKGRFTISRDDSKNTLYLQMNSLRAEDTAVYYCAREQARSFDLWGRGTLVTVSS VL: DVVMTQSPSTLSASVGDRVTITCRASQTINNWLAWYQQKPGKAPKLLIYKASSLESGVPSRFSGSGSGTEFTLTISSLQPDDFATYYCQQYNSYSPMYTFGQGTKVEIKR :: 262000
PR001365 (antibody, human IgG1, kappa, V domains shown, fully human IgG1, kappa) VH: QVQLVQSGGGVVQPGRSLRLSCAASGFTFSSYGMHWVRQAPGKGLEWVAVIWYDGSDKDYADSVKGRFTISRDTSKNTLYLQMNSLRAEDTAVYYCAREQARSFDLWGRGTLVTVSS VL: DIQMTQSPYSLSASVGDRVTITCRASQTINNWLAWYQQKPGKAPKLLIYKASSLESGVPSRFSGSGSGTEFTLTISSLQPDDFATYYCQQYKLYSPMYTFGQGTKVEIKR :: 262000
PR001361 (antibody, V domains shown, fully human IgG1, kappa) VH: QVQLVQSGGGVVQPGRSLRLSCTASGFTFSRYGMLWVRQAPGKGLEWVAVAWYDGVSEDYADSVKGRFTISRDNSMNTLSLQMNSLRAEDTAVYYCAREQARSFDLWGRGTLVTVSS VL: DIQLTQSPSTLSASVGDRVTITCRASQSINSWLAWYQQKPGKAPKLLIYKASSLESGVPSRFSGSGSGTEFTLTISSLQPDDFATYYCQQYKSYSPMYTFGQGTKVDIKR :: 262000

Read the next record carefully.
Could you share which MAX(MFI) value was measured for PR001357 (antibody, human IgG1, kappa, V domains shown, fully human IgG1, kappa) VH: QVQLVQSGGGVVQPGRSLRLSCAASGFTFSSYGMHWVRQAPGKGLEWVAVIWYDGSNKDYADSVKGRFTISRDTSKNTLYLQMNSLRAEDTAVYYCAREQARSFDLWGRGTLVTVSS VL: DIQLTQSPYSLSASVGDRVTITCRASQTINNWLAWYQQKPGKAPKLLIYKASSLESGVPSRFSGSGSGTEFTLTISSLQPDDFATYYCQQYKLYSPMYTFGQGTKVEIKR ?
262000
